Provenance of the data: patent US9782394B2

- Tested on: MDA PCa2b cells
- Protocol Summary: Cell growth inhibition, MDA PCa2b
- Type: cell-based
- Study Conditions: MDA-PCa-2b, ERG negative prostate cancer, read-out: Cell growth inhibition (ERGi-USU: IC50)
pIC50: −log10 of the molar value.
Measured Quantity: pIC50

*Q* Look up pIC50 for this molecule: Oc1ccc2ccccc2c1/N=N/c1nccs1
*A* < 5.00

---

- System: MOLT-4 cells
- Protocol Summary: Cell growth inhibition, MOLT-4
- Format: cell-based
- Study Conditions: Homo sapiens; MOLT-4, ERG positive acute lymphoblastic leukemia; read-out: Cell growth inhibition (ERGi-USU: IC50)
Measured Quantity: pIC50
Reminder that pIC50 means the negative base-10 logarithm of the concentration expressed in mol/L.

*Q* Entry under review: Oc1ccc2ccccc2c1/N=N/c1nccs1 [ERGi-USU, 1-(thiazol-2-yldiazenyl)naphthalene-2-ol] . Reported pIC50?
*A* 7.30

---

- Tested on: COLO320 cells
- Protocol Summary: Cell growth inhibition, COLO320
- Assay type: cell-based
- Study Conditions: Homo sapiens, COLO 320; COLO320, ERG positive colon adenocarcinoma; read-out: Cell growth inhibition (ERGi-USU: IC50)
Measured Quantity: IC50 (nM)
# number only, unit nM dropped from output

*Q* Identify the measured IC50 of Oc1ccc2ccccc2c1/N=N/c1nccs1 [ERGi-USU, 1-(thiazol-2-yldiazenyl)naphthalene-2-ol] for COLO320 cells.
*A* 300
